assaySystem: TLR2 (Homo sapiens)
Sequence (O60603 21-784): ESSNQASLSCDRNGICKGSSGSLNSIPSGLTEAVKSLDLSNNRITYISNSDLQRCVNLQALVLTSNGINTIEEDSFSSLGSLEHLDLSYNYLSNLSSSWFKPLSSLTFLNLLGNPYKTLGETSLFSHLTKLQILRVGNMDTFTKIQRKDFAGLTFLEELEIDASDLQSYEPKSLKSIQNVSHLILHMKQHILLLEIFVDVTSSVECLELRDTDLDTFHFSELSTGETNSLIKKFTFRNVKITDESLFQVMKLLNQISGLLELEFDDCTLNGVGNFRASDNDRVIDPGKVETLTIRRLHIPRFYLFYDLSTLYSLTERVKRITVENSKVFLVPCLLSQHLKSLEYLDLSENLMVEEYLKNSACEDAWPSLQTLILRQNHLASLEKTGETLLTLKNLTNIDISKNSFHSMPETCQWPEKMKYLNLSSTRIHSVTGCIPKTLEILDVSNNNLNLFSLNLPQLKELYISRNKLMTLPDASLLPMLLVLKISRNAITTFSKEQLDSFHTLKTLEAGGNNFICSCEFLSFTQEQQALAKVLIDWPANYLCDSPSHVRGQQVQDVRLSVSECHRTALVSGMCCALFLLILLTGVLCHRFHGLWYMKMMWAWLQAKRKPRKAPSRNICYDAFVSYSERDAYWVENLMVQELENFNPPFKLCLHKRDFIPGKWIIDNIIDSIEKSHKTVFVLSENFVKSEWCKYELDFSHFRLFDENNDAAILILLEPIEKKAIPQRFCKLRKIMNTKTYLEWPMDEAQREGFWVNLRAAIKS
experimentalProtocol: TLR2 agonist screening assay, HEK-Blue TLR2 reporter cell line (NF-kB-driven SEAP, absorbance at 600 nm)
Format: cell-based
Parameters: host or cells: HEK-293 (HEK-Blue TLR2 reporter cell line)
conditionSet: HEK-Blue TLR2 reporter cells, agonist mode; average of all runs (Table 3)
pEC50: −log10 of the molar value.
Let's look at some compounds and their measured pEC50.

compound	assaySystem	pEC50
CCCCCCCCCC(=O)N1CCN(C(=O)c2ccc(C(=O)N3C[C@@H](C(=O)N[C@H]4C[C@@H]4c4ccccc4)[C@H](C(=O)N[C@H]4C[C@@H]4c4ccccc4)C3)cc2)CC1C(=O)NCCCCCC (stereo partly shown)	TLR2 (Homo sapiens)	7.30 to 10.00

Qu. Which pEC50 value is on record for CCCCCCNC(=O)[C@@H]1C[C@@H](C(=O)NCCCCCC)CN(C(=O)c2ccc(C(=O)N3C[C@@H](C(=O)N[C@H]4C[C@@H]4c4ccccc4)[C@H](C(=O)N[C@H]4C[C@@H]4c4ccccc4)C3)cc2)C1 ?
Ans. < 6.00

Qu. Now give it for CCCCCCNC(=O)[C@@H]1CN(C(=O)c2ccc(C(=O)N3C[C@@H](C(=O)N[C@H]4C[C@@H]4c4ccccc4)[C@H](C(=O)N[C@H]4C[C@@H]4c4ccccc4)C3)cc2)C[C@H]1O (relative stereo) too.
Ans. 6.46 to 7.29

Qu. Now give it for CCCCCCCCCCCCCCNC(=O)[C@@H]1CN(C(=O)c2ccc(C(=O)N3C[C@@H](C(=O)N[C@H]4C[C@@H]4c4ccccc4)[C@H](C(=O)N[C@H]4C[C@@H]4c4ccccc4)C3)cc2)C[C@H]1OC (relative stereo) too.
Ans. 7.30 to 10.00

====

Let's look at some compounds and their measured pEC50.
assaySystem: TLR2 (Mus musculus, UniProt Q9QUN7)
Construct: endogenous in cells
Sequence (Q9QUN7 25-784): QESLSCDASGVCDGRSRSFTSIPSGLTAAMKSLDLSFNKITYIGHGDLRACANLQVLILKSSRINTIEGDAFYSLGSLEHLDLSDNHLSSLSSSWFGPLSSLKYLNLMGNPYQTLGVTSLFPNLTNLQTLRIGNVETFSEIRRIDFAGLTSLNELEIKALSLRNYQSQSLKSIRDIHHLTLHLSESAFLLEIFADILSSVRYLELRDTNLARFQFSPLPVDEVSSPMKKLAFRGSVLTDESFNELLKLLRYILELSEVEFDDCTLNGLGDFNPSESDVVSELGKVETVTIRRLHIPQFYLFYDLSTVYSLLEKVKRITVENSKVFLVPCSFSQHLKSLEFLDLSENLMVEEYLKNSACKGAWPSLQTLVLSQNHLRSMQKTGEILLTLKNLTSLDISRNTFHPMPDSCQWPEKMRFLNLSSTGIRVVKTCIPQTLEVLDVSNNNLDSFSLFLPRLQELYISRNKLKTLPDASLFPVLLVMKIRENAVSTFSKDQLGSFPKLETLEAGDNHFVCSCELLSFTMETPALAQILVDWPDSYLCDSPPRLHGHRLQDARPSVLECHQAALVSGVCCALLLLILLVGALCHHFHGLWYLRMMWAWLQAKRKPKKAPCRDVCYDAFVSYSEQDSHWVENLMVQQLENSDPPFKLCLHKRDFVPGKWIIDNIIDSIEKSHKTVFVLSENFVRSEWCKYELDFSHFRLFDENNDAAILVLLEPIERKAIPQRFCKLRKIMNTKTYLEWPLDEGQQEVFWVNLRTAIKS
experimentalProtocol: TLR2 functional assay, cytokine release from RAW 264.7 mouse macrophage cell line
conditionSet: average of all runs
pEC50: −log10 of the molar value.

Qu. Which pEC50 value is on record for CCCCCCCCCCCCCCNC(=O)[C@H]1CN(C(=O)c2ccc(C(=O)N3C[C@@H](C(=O)N[C@H]4C[C@@H]4c4ccccc4)[C@H](C(=O)N[C@H]4C[C@@H]4c4ccccc4)C3)cc2)C[C@H]1OC (relative stereo) ?
Ans. 6.46 to 7.29

Qu. Now give it for CCCCCCCCCCCCNC(=O)N[C@@H]1CCCN(C(=O)c2ccc(C(=O)N3C[C@@H](C(=O)N[C@H]4C[C@@H]4c4ccccc4)[C@H](C(=O)N[C@H]4C[C@@H]4c4ccccc4)C3)cc2)C1 too.
Ans. < 6.00

Qu. Now give it for CCCCCCCCCCCCCNC(=O)N[C@H]1CN(C(c2ccc(C(=O)N3C[C@@H](C(=O)N[C@H]4C[C@@H]4c4ccccc4)[C@H](C(=O)N[C@H]4C[C@@H]4c4ccccc4)C3)cc2)C(F)(F)F)C[C@@H]1OC (stereo partly shown) too.
Ans. 6.00 to 6.45

Qu. Now give it for CCCCCCCCNC(=O)N[C@@H](CNC(=O)c1ccc(C(=O)N2C[C@@H](C(=O)N[C@H]3C[C@@H]3c3ccccc3)[C@H](C(=O)N[C@H]3C[C@@H]3c3ccccc3)C2)cc1)C(=O)NCCCCCC too.
Ans. < 6.00
